Consider the following compounds and their measured Wave efficiency readings.
# assay notes: Permanent wave processing of hair, wave efficiency by Kilby method
# applied conditions: pH 7.5 first liquid; compound at 2% in terms of reducing power of thioglycolic acid; soaked at 35° C. for 20 minutes; bromate second liquid 25° C. 10 minutes
# Protocol: A permanent wave first liquid was prepared as described below using the alkoxyalkyl mercaptocarboxylate (TGE-1) obtained in Synthetic Example 1. A permanent wave second liquid was prepared as described below. Hair was permanent waved with these liquids, and the wave efficiency was obtained. […] The mixing was performed such that the total amount would be 100 g. […] The wave efficiency was evaluated by a Kilby method as described in Fragrance Journal Extra Edition (1984, No. 5, P. 442). […]
Structures can show the parent of a compound that is named as a salt.
test readout: Wave efficiency (%)

compound: CCOCCOC(=O)CS [TGE-2, 2-ethoxyethyl thioglycolate]
test readout: Wave efficiency
unit label: %
recorded value: 87
//
compound: COCCOCCOCCOC(=O)CS [TGE-9, 8-methoxy-3,6-dioxaoctyl thioglycolate]
test readout: Wave efficiency
unit label: %
recorded value: 75
//
compound: COCCOCCOCCOC(=O)CS [TGE-6, 8-methoxy-3,6-dioxaoctyl thioglycolate]
test readout: Wave efficiency
unit label: %
recorded value: 67
//
compound: CCCCOCCOC(=O)CS [TGE-3, 2-butoxyethyl thioglycolate]
test readout: Wave efficiency
unit label: %
recorded value: 79
//
compound: CCOCC(C)OC(=O)CS (centres unmarked) [TGE-8, 2-ethoxy-1-methylethyl thioglycolate]
test readout: Wave efficiency
unit label: %
recorded value: 82
//
compound: CCOCCOCCOC(=O)CS [TGE-5, 5-ethoxy-3-oxapentyl thioglycolate]
test readout: Wave efficiency
unit label: %
recorded value: 70
//
compound: COCC(C)OC(=O)CS (centres unmarked) [TGE-7, 2-methoxy-1-methylethyl thioglycolate]
test readout: Wave efficiency
unit label: %
recorded value: 81
//
compound: NCCS [Cysteamine hydrochloride, cysteamine hydrochloride, reference compound]
test readout: Wave efficiency
unit label: %
recorded value: 65

---

# assay notes: Permanent wave processing of hair, wave efficiency by Kilby method
# applied conditions: pH 9 first liquid; compound at 2% in terms of reducing power of thioglycolic acid; soaked at 35° C. for 20 minutes; bromate second liquid 25° C. 10 minutes
# Method: A permanent wave first liquid was prepared as described below using the alkoxyalkyl mercaptocarboxylate (TGE-1) obtained in Synthetic Example 1. A permanent wave second liquid was prepared as described below. Hair was permanent waved with these liquids, and the wave efficiency was obtained. […] The mixing was performed such that the total amount would be 100 g. […] The wave efficiency was evaluated by a Kilby method as described in Fragrance Journal Extra Edition (1984, No. 5, P. 442). […]
Counter-ions that a name gives are not always drawn.
Consider the following compounds and their measured Wave efficiency readings.
test readout: Wave efficiency

compound: COCC(C)OC(=O)CS (centres unmarked) [TGE-7, 2-methoxy-1-methylethyl thioglycolate]
test readout: Wave efficiency
recorded value: 81%
--
compound: COCCOCCOCCOC(=O)CS [TGE-6, 8-methoxy-3,6-dioxaoctyl thioglycolate]
test readout: Wave efficiency
recorded value: 65%
--
compound: CCOCCOC(=O)CS [TGE-2, 2-ethoxyethyl thioglycolate]
test readout: Wave efficiency
recorded value: 86%
--
compound: NCCS [Cysteamine hydrochloride, cysteamine hydrochloride, reference compound]
test readout: Wave efficiency
recorded value: 73%
--
compound: CCCCOCCOC(=O)CS [TGE-3, 2-butoxyethyl thioglycolate]
test readout: Wave efficiency
recorded value: 82%
--
compound: COCCOCCOCCOC(=O)CS [TGE-9, 8-methoxy-3,6-dioxaoctyl thioglycolate]
test readout: Wave efficiency
recorded value: 76%
--
compound: CCOCCOCCOC(=O)CS [TGE-5, 5-ethoxy-3-oxapentyl thioglycolate]
test readout: Wave efficiency
recorded value: 71%
--
compound: CCOCC(C)OC(=O)CS (centres unmarked) [TGE-8, 2-ethoxy-1-methylethyl thioglycolate]
test readout: Wave efficiency
recorded value: 83%
